Measurement target: Potassium voltage-gated channel subfamily KQT member 2 (Rattus norvegicus) (UniProt O88943)
Sequence (O88943 whole entry, looked up): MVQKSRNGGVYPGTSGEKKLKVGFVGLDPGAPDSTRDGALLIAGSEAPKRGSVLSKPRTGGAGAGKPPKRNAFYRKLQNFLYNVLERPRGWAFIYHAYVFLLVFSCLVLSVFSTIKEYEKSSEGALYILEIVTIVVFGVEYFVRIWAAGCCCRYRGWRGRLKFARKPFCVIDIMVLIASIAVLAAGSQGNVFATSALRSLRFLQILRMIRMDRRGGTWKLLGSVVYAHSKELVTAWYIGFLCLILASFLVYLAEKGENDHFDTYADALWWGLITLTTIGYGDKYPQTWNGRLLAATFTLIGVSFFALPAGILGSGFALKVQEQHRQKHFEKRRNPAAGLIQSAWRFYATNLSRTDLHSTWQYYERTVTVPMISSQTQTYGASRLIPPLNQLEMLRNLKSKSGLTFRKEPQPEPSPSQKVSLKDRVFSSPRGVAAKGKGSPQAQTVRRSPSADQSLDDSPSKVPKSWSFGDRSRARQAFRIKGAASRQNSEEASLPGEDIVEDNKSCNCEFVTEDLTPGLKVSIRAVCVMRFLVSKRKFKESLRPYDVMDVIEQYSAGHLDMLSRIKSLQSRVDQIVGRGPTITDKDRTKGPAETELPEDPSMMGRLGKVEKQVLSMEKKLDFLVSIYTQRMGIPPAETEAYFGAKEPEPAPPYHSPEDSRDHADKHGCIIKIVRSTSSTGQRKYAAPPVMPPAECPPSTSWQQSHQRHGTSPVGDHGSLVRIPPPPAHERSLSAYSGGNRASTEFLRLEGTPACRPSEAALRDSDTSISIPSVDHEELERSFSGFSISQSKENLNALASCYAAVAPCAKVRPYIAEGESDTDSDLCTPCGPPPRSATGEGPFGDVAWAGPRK
Procedure summary: rat KCNQ2 channel potentiation, selectivity assay for KCNQ1 potentiator project, KCNQ2-CHO-K1 cells (AID 493009);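 note: assay conditions were tuned for KCNQ1 rather than KCNQ2 modulators; signal is max minus min fluorescence divided by baseline after thallium stimulus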
Experimental parameters: FluxOR thallium flux fluorescence, at 10 µM, scaled: buffer 0, activator control 100
The source made the active and inactive calls.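 Rule for the calls: active = mean duplicate potentiation above the buffer control mean plus 5 SD of buffer wells; inactive = the rest.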
Entry note: the call must match one of active, inactive

Recorded results for 5 molecules are shown here.
>>> class_assignment("CC1(C)CC2CC(C)(CN2C(=S)NC(=O)c2ccccc2Cl)C1 (stereo unspecified)")
"active"
>>> class_assignment("O=C(NN=C1CCCCCC1)c1cc(-c2ccccc2)nc2ccccc12")
"inactive"
>>> class_assignment("COc1cc2c(cc1OC)CN(CCC(=O)c1ccc(Br)cc1)CC2")
"inactive"
>>> class_assignment("CNC(=O)c1cc(-c2ccc(Cl)cc2)n(-c2ccccc2)n1")
"inactive"
>>> class_assignment("O=C(O)c1ccc([N+](=O)[O-])c(CS(=O)(=O)c2ccccc2)c1")
"inactive"

Query: What is the recorded call for this molecule in the test? "Cn1cccc1/C=N/n1c(-c2ccc(C(C)(C)C)cc2)n[nH]c1=S"
Response: inactive
